Exercise: state measured pIC50 for each of the binders provided.
# TARGET: HLA-B*3501 (human), P01889
# EXPERIMENTAL DETAILS: competition, FACS 4C
# CONDITION SUMMARY: modification not given
One number for each entry, as −log10 of the molar value.

Here is how some binders turned out for pIC50.
BINDER: GACDELFSY [PRAME 186-194]
pIC50: 5.59
//
BINDER: LPRELFPPLF [PRAME 48-57]
pIC50: 5.80
//
BINDER: IPVEVLVDL [PRAME 173-181]
pIC50: 5.65
//
BINDER: QPFIPVEVL [PRAME 170-178]
pIC50: 5.55
//
BINDER: EPILCPCFM [PRAME 499-507]
pIC50: 6.49

// next item, pIC50 requested
Given item SPYLGQMINL [PRAME 253-262] , the value recorded as its pIC50 is 5.70
